Assay: Human HepG2 cell viability assay in 384 well format
Format: toxicity, cell-based
Design: dose 125 nL, time 70.5 hour; concentration not given beside the values
Conditions: HepG2 cells, read-out: Inhibition
The reader will find reported cytotoxicity at 70.5 h values listed item by item below.
Give just the numeric value; % need not be written.

Illustrative cases are given below, each with its answer.
>>> assay_value("CCNC(=O)N(CCCO)C1CCCc2ccccc21 (stereo unspecified)")
-3.93
>>> assay_value("CCn1nc(C)c2nc(C(C)C)nc(NCc3ccccn3)c21")
0.25

Ask | cytotoxicity at 70.5 h for `COc1ccc2nnc(CCC(=O)Nc3nc4c(s3)CCCCC4)n2n1` ?
Reply | -17.3

Ask | cytotoxicity at 70.5 h for CN(Cc1csc(-c2cccs2)n1)CC(O)CO (stereo unspecified) ?
Reply | 18.7

Ask | cytotoxicity at 70.5 h for CCc1cnc(CN(C(C)=O)C2CCN(CCS(C)(=O)=O)C2)o1 (stereo unspecified) ?
Reply | 32.1

Ask | cytotoxicity at 70.5 h for CN1C(=O)C2(CCCN(C(=O)c3ccc(=O)n(C)n3)C2)c2ccccc21 (stereo unspecified) ?
Reply | 0.808

Ask | cytotoxicity at 70.5 h for CC(C)NC(=O)C1CCc2nnc(CNC(=O)c3ccc(Cl)cc3Cl)n21 (stereo unspecified) ?
Reply | 1.45

Ask | cytotoxicity at 70.5 h for `CN1[C@H]2CC[C@@H]1CN(C(=O)c1nnc3n1CCCC3)CC2` ?
Reply | 12.6

Ask | cytotoxicity at 70.5 h for CCS(=O)(=O)NC(CCSC)C(=O)Nc1ccc(C)cc1C (stereo unspecified) ?
Reply | -88.5

Ask | cytotoxicity at 70.5 h for `CCCS(=O)(=O)N1CCn2cc(CNc3ccccn3)nc2C1` ?
Reply | -2.49

Ask | cytotoxicity at 70.5 h for `Cc1nc(CCC(N)=O)cc(C2CCNCC2)n1` ?
Reply | 18.8

====

Experiment: Human HepG2 cell viability assay in 384 well format
Assay type: toxicity, cell-based
Design: dose 125 nL, time 70.5 hour; concentration not given beside the values
Conditions: HepG2 cells, read-out: Inhibition
The reader will find reported cytotoxicity at 70.5 h values listed item by item below.
Give just the numeric value; % need not be written.

Illustrative cases are given below, each with its answer.
>>> assay_value("O=C(Cn1cccnc1=O)NC(Cc1cccs1)c1ccccn1 (stereo unspecified)")
-13.9
>>> assay_value("CCN1Cc2nc(OC)c(CNC(=O)C3CCCN(C)C3)cc2C1=O (stereo unspecified)")
-5.45
>>> assay_value("CC(C)NC(=O)[C@H]1C[C@@H]2CN(C(=O)NC(C)C)C[C@H]1O2")
-10.3
>>> assay_value("Cc1cc(N2CCC(NC(C)Cc3ccsc3)CC2)nc(C)n1 (stereo unspecified)")
-2.86
>>> assay_value("CCC(=O)c1ccc(OCC(=O)N(C)C(C)c2ccon2)cc1 (stereo unspecified)")
-13.2

Ask | cytotoxicity at 70.5 h for CCc1nc(C2NC3(CCCC3)C(=O)N2CC2CC2)cs1 (stereo unspecified) ?
Reply | 22.7

====

Assay: Human HepG2 cell viability assay in 384 well format
Assay type: toxicity, cell-based
Parameters: dose 125 nL, time 70.5 hour; concentration not given beside the values
Details: HepG2 cells, read-out: Inhibition
ASSAY_ENDPOINT: cytotoxicity at 70.5 h (%)
Give just the numeric value; % need not be written.

>>> assay_value("CCN(CC)C1(Cc2cc(CC(C)C)on2)COC1")
0.19
>>> assay_value("c1cnc2c(c1)cc(C1CCOCC1)n2CCN1CCOCC1")
-11.3
>>> assay_value("CC(CC(=O)c1ccccc1)NC(=O)c1ccon1 (stereo not drawn)")
-5.06
>>> assay_value("CCc1n[nH]c(C2CN(C(=O)c3cscn3)CCO2)n1 (stereo not drawn)")
43
>>> assay_value("Cc1ccccc1S(=O)(=O)Cc1nsc(N(C)C)n1")
0.131
>>> assay_value("CCc1nnc2n1CCN(C(=O)c1cnc(C3CC3)s1)C2")
-9.47

Ask | cytotoxicity at 70.5 h for `COc1cccc(N2CCN(Cc3ccc(NC(C)=O)cc3)CC2=O)c1` ?
Reply | 9.59

Ask | cytotoxicity at 70.5 h for CC(C)N1CCOC(c2ccnc(N(C)C)n2)C1 (stereo not drawn) ?
Reply | -3.86

These measurements were taken from ChEMBL document CHEMBL3507680.
